Reference for the values: patent US10654834B2

- subject.of.test: mouse TGR5 receptor (Mus musculus, UniProt Q80SS6)
- Construct: host or cells: HEK293-EBNA (293 c18, ATCC CRL10852)
- Sequence (Q80SS6 whole entry): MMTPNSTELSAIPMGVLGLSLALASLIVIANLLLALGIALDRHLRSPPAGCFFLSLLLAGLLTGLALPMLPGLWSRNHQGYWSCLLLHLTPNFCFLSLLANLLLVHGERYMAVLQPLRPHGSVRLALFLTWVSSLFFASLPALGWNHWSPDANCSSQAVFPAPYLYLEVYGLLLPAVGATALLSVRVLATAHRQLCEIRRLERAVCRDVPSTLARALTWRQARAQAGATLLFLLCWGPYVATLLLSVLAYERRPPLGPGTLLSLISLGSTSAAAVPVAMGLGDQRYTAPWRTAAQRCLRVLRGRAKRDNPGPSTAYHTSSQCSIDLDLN
- assay.protocol: Mouse TGR5 HTRF cAMP production assay (HEK293-EBNA cells, Cisbio cAMP HiRange kit)
- Format: cell-based
- experimental.conditions: HEK293-EBNA cells overexpressing mouse TGR5, HTRF cAMP assay
pEC50: −log10 of the molar value.
recorded.endpoint: pEC50

// below: answered molecules
- N#Cc1ccc(CCNC(=O)[C@@H]2CCCN2c2cc(N3CCC(CCCNC(=O)NCS(=O)(=O)O)CC3)nc(C(F)(F)F)n2)cc1: > 7.00
- N#Cc1ccc(CCNC(=O)[C@@H]2CCCN2c2cc(N3CCC(COCC(=O)O)CC3)nc(C(F)(F)F)n2)cc1: > 7.00
- N#Cc1ccc(CCNC(=O)[C@@H]2CCN2c2cc(N3CCC(CCO)CC3)nc(C(F)(F)F)n2)cc1: > 7.00

Data point: `O=C(CCCC1CCN(c2cc(N3CCC[C@H]3C(=O)NCCc3ccc(C(F)(F)F)cc3)nc(C(F)(F)F)n2)CC1)NCCNS(=O)(=O)c1ccc(C(=O)O)cc1` ; pEC50 = > 7.00

Recorded result, `N#Cc1ccc(CCNC(=O)[C@@H]2CCCN2c2cc(N3CCC(OCC#CCS(=O)(=O)O)CC3)nc(C(F)(F)F)n2)cc1` , pEC50: > 7.00

Entry `Cc1ccsc1-c1cc(N2CCC[C@H]2C(=O)NCCc2ccc(C#N)cc2)nc(C(F)(F)F)n1` , pEC50 reported as 6.00 to 7.00

* * *

- subject.of.test: mouse TGR5 receptor (Mus musculus, UniProt Q80SS6)
- Construct: host or cells: HEK293-EBNA (293 c18, ATCC CRL10852)
- assay.protocol: Mouse TGR5 luminescent cAMP production assay (HEK293-EBNA cells, DiscoveRx cAMP XS+ kit)
- Format: cell-based
- experimental.conditions: HEK293-EBNA cells overexpressing mouse TGR5, luminescent cAMP assay; read-out: Mouse TGR5 Lum. cAMP Activity (EC50)
pEC50: −log10 of the molar value.
Reported pEC50 values for the following compounds.

Example results:
* COCC1CCN(c2cc(N3CCC[C@@H](C(=O)NCCc4ccc(C#N)cc4)C3)nc(C(F)(F)F)n2)CC1 [Compound 310] | 6.00 to 7.00
* N#Cc1ccc(CCNC(=O)[C@@H]2CCCN(c3cc(N4CCN(CCO)CC4)nc(C(F)(F)F)n3)C2)cc1 [Compound 313] | 6.00 to 7.00
* O=C(NCCc1ccc(C(F)(F)F)cc1)[C@@H]1CCCN(c2cc(NCCN3CCOCC3)nc(C(F)(F)F)n2)C1 [Compound 325] | > 7.00

Entry under test: N#Cc1ccc(CCNC(=O)[C@@H]2CCN2c2cc(N3CCC(CO)CC3)nc(C(F)(F)F)n2)cc1 [Compound 219] . Its pEC50 was > 7.00

Lab note: CN(CC1CCN(c2cc(N3CCC[C@H]3C(=O)NCCc3ccc(C#N)cc3)nc(C(F)(F)F)n2)CC1)C(=O)OC(C)(C)C [Compound 20] gave pEC50 of 4.52 to 6.00

For N#Cc1ccc(CCNC(=O)[C@@H]2CCN2c2cc(-c3ccncc3)nc(C(F)(F)F)n2)cc1 [Compound 303] the compound record lists pEC50 as 6.00 to 7.00

Documented pEC50 of Cc1ccc(-c2cc(N3CCC[C@H]3C(=O)NCCc3ccc(C#N)cc3)nc(C(F)(F)F)n2)cc1 [Compound 143] : 6.00 to 7.00

Record CN(C)c1cc(N2CCC[C@@H](C(=O)NCCc3ccc(C(F)(F)F)cc3)C2)nc(C(F)(F)F)n1 [Compound 322] . Reported pEC50: 4.52 to 6.00

Value of pEC50 reported for the compound N#Cc1ccc(CCNC(=O)[C@@H]2CCCN2c2cc(-c3csc(C(=O)O)c3)nc(C(F)(F)F)n2)cc1 [Compound 178] is > 7.00

So, O=C(NCCc1ccc(C(F)(F)F)cc1)[C@@H]1CCCN(c2cc(NCCO)nc(C(F)(F)F)n2)C1 [Compound 323] ? Its pEC50 was 6.00 to 7.00
